# Test system: ATS95
# assay.protocol: qHTS profiling for inhibitors of Plasmodium falciparum proliferation (AID 504749); also: nearly all actives have a fitted effect of over 60% in size
# experimental.context: P. falciparum in erythrocytes, SYBR Green DNA, 72 h; series mostly up to 12.8 µM
Records with an inconclusive call do not appear. The source made the active and inactive calls. Calls follow the shape of the dose curve; as a rule, active = well fitted inhibition curve with a large enough effect; inconclusive = small, poorly fitted or top-dose-only effect; inactive = flat fitted curve, though single readings scatter.
Outcome (select one): 1.0 = active, 0.0 = inactive

Some solved cases for reference:
compound | experimental.system | answer.label
C[C@H](N[C@@H](C)COc1ccccc1)[C@H](O)c1ccc(O)cc1 | ATS95 | 0.0
C#C[C@]1(O)CC[C@@H]2[C@H]3CCC4=CCCC[C@@H]4[C@@H]3CC[C@@]21C | ATS95 | 0.0
O=C(N/N=C\c1ccc([N+](=O)[O-])o1)c1ccc(O)cc1 | ATS95 | 1.0
C=CC1=C(C(=O)O)N2C(=O)[C@@H](NC(=O)/C(=N\OCC(=O)O)c3csc(N)n3)[C@@H]2SC1 | ATS95 | 0.0

Prompt: What was the test verdict on `Cn1nnnc1SCC1=C(C(=O)O)N2C(=O)[C@@H](NC(=O)[C@@H](O)c3ccccc3)[C@@H]2SC1` ?
Response: 0.0

Prompt: Now the same for `O=C1O[C@H](CN2CCOCC2)CN1/N=C\c1ccc([N+](=O)[O-])o1`
Response: 0.0
